Test system: Saccharomyces cerevisiae
Assay: protein stability index of tFT-peptide fusion (C-terminal peptide) (PSI (0-1 scale)); higher = more stable (slower turnover)
Conditions: genetic background: cdc34-1; temperature: 37 C
MEASURE: protein stability index
Give bare numbers.

INSERT INTO assay_data (sequence_input, number) VALUES
  ('VFWLLVGLGCFS', 0.561);

For every item below, please supply its protein stability index.
1. SRVGAGVVRGVG
2. LFFCYRVFLLVF
3. LSLVIFIFLYCR
4. LFHSFFLYCLMS
5. LEDVLFVMVINI
6. DPPRPIMRIHMI

Data returned:
0.481
0.132
0.0945
0.56
0.455
0.553

For every item below, please supply its protein stability index.
1. LFRGVWYYFLVR
2. GVFRYKLILRKM
3. VVRMRPRLFSLY
4. YLGLSAVAILWM
5. FSPSHMLRIFCY

Data returned:
0.486
0.527
0.807
0.538
0.337

For every item below, please supply its protein stability index.
1. LLVRSFIFPLVY
2. PVLSLPPLSSPP
3. FGWLELVWFDLG
4. GCILSLCYAVST
5. FYFLSFLLLLSP
6. LVVFGLVLSLLL

Data returned:
0.391
0.682
0.646
0.555
0.143
0.449

Data request: Can you share its protein stability index? I mean this sequence: CRFYIRITRRYS
Data returned: 0.491

----------
Answer each item with its documented protein stability index.
Test system: Saccharomyces cerevisiae;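 note: PSI is a weighted mean of sequencing reads over stability bins, variants kept only with over 10 reads, mCherry proximal and sfGFP distal, peptide attached via GGGS linker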
Test: protein stability index of tFT-peptide fusion (C-terminal peptide) (PSI (0-1 scale)); higher = more stable (slower turnover)
Settings: genetic background: wild type; temperature: 30 C
Give bare numbers.

INSERT INTO results (sequence_input, number) VALUES
  ('LLVRSFIFPLVY', 0.289),
  ('ASSSPAPYAPYT', 0.642),
  ('LMLIPRLLVGAH', 0.181),
  ('VLFVRGHTLWLM', 0.458),
  ('CSKGLSILLLLL', 0.321);

For every item below, please supply its protein stability index.
1. VTTTWTWTVRLC
2. FRILVGCRVVLM
3. FSSRVFLIVGIY
4. FFVFYICSCFLV
5. LPTLDCPLHRLF
6. RIWRLLIIIIKK
7. AVPTSPYSLIVY
8. LSFLFFRLCSFF

Data returned:
[0.0807, 0.343, 0.27, 0.372, 0.654, 0.259, 0.337, 0.158]

For every item below, please supply its protein stability index.
1. FFGFFWLFLLFC
2. SFFWAMSLLCFV
3. PVLSLPPLSSPP
4. LRQKIIYWWLWL
5. LSFLCFSTVLHC
6. WLMVGVDWRFVG
7. RGLLLKILIASG

Data returned:
1: 0.202; 2: 0.414; 3: 0.691; 4: 0.245; 5: 0.462; 6: 0.08; 7: 0.213

For every item below, please supply its protein stability index.
1. DSPRGRCVRLLV
2. VRVFSLVVCWVV
3. IVCYFFAFSFMW
4. SVSMYPKPHLIC
5. GAWLAVCVVREG
6. HCLGWCFSRLSS
7. DLPKAYCIEMIG
8. LWGLVGVCLVLC

Data returned:
[0.308, 0.219, 0.288, 0.13, 0.405, 0.206, 0.215, 0.113]

For every item below, please supply its protein stability index.
1. IGWGGGTWVKMG
2. LVVWASLVRVEG
3. WLCLFRFLGVAY
4. ASIEVGNVIKQM
5. SRVHHLWAILVP

Data returned:
[0.106, 0.255, 0.216, 0.43, 0.228]
